system: Staphylococcus aureus; experiment: In vitro antibacterial activity against Staphylococcus aureus 209P JC-1; assay type: functional; conditions: Staphylococcus aureus; read-out: MIC
Would you kindly list MIC for each of these compounds?

CC1Sc2c(C(=O)O)c(=O)c3cc(F)c(N4CCNC(=O)C4)cc3n21 (centres undefined) :: 0.39 µg/mL

Hi there! I need MIC for each item below, if you can.
1. O=C(O)c1cn(C2CC2)c2cc(N3CCNCC3)c(F)cc2c1=O
2. CC1Sc2c(C(=O)O)c(=O)c3cc(F)c(N4CCN(c5ccccc5)CC4)cc3n21 (centres undefined)
3. O=C(O)c1c2n(c3cc(N4CCNCC4)c(F)cc3c1=O)C(c1ccccc1F)S2 (centres undefined)

1. 0.1 µg/mL
2. 3.13 µg/mL
3. 1.56 µg/mL
